Record form. Attribute: abundance fitness. Fill in for each entry.
B1: Tyrosine-protein kinase BTK, residues 215 to 273; numbered along this chain, Q06187 (parent)
chain: ELKKVVALYDYMPMNANDLQLRKGDEYFILEESNLPWWRARDKNGQEGYIPSNYVTEAE

variants of: B1; assay: abundance fitness (aPCA) (normalised: wild type 0, dead -1); higher = more abundant; growth selection in yeast, the domain comes from the species named; settings: Homo sapiens
Give bare numbers.

Examples with their reported abundance fitness follow.
[
  {
    "Mutation annotation": "A40L",
    "Recorded endpoint": "abundance fitness",
    "Measured number": -0.181
  },
  {
    "Mutation annotation": "Q20I",
    "Recorded endpoint": "abundance fitness",
    "Measured number": -0.084
  },
  {
    "Mutation annotation": "A58R",
    "Recorded endpoint": "abundance fitness",
    "Measured number": -0.03
  },
  {
    "Mutation annotation": "S52I",
    "Recorded endpoint": "abundance fitness",
    "Measured number": -0.053
  },
  {
    "Mutation annotation": "A40F",
    "Recorded endpoint": "abundance fitness",
    "Measured number": -0.892
  }
]

Record abundance fitness per entry; entries follow.
1. V55K
2. G48S

Resp:
[-0.833, -0.862]
